assay_method_text: xn = mol fraction of the nth substance listed, in the solute-free solvent
run_conditions: 303.15 K; x2 = 0.1
observation_type: solubility (g/100 g solution)
No unit in the answer, please; the number alone is enough.

Here is how some compounds turned out for solubility (g/100 g solution).
| compound | solubility (g/100 g solution) |
| --- | --- |
| COC1=CC(=O)CC(C)C12Oc1c(Cl)c(OC)cc(OC)c1C2=O (stereo not given) + CC(C)=O + CC(C)O | 0.375 |
| CCCCOc1ccc(C(=O)CCN2CCCCC2)cc1.Cl + CCO + CCOC(C)=O | 9.93 |
| CCCCOc1ccc(C(=O)CCN2CCCCC2)cc1.Cl + CO + C1CCOC1 | 7.23 |

Find the measured solubility (g/100 g solution) of O=C(O)c1ccc(C(=O)O)o1 + C1COCCO1 + O and report it.
1.85

Find the measured solubility (g/100 g solution) of O=C(O)c1ccc(C(=O)O)o1 + C1CCOC1 + O and report it.
1.73

Find the measured solubility (g/100 g solution) of COC1=CC(=O)CC(C)C12Oc1c(Cl)c(OC)cc(OC)c1C2=O (stereo not given) + CCC(C)=O + CC(C)O and report it.
0.391

Find the measured solubility (g/100 g solution) of CCCCOc1ccc(C(=O)CCN2CCCCC2)cc1.Cl + CCO + O and report it.
51.6

Find the measured solubility (g/100 g solution) of O=C1CCc2ccc(OCCCCN3CCN(c4cccc(Cl)c4Cl)CC3)cc2N1 + CCC(C)=O + CCOC(C)=O and report it.
1.57

Find the measured solubility (g/100 g solution) of CCCCOc1ccc(C(=O)CCN2CCCCC2)cc1.Cl + CCO + CCCCCC and report it.
4.75

----------
Listing of recorded solubility (g/100 g solution) by entry.
assay_method_text: xn = mol fraction of the nth substance listed, in the solute-free solvent
run_conditions: 288.15 K; x2 = 0.6
No unit in the answer, please; the number alone is enough.

Here is how some compounds turned out for solubility (g/100 g solution).
| compound | reported_value |
| --- | --- |
| CCCCOc1ccc(C(=O)CCN2CCCCC2)cc1.Cl + CO + C1CCOC1 | 30.8 |
| CCCCOc1ccc(C(=O)CCN2CCCCC2)cc1.Cl + CCO + CCOC(C)=O | 21.7 |
| COC1=CC(=O)CC(C)C12Oc1c(Cl)c(OC)cc(OC)c1C2=O (stereo not drawn) + CC(=O)CC(C)C + CC(C)O | 0.655 |
| CCCCOc1ccc(C(=O)CCN2CCCCC2)cc1.Cl + CCO + O | 38.4 |

Find the measured solubility (g/100 g solution) of COC1=CC(=O)CC(C)C12Oc1c(Cl)c(OC)cc(OC)c1C2=O (stereo not drawn) + CCC(C)=O + CC(C)O and report it.
1.37

Find the measured solubility (g/100 g solution) of CC(=O)OC(c1ccccc1)C(Cl)(Cl)Cl (stereo not drawn) + CC(=O)O + O and report it.
1.45

----------
assay_method_text: xn = mol fraction of the nth substance listed, in the solute-free solvent
run_conditions: 293.15 K; x2 = 0.8
The label depends only on solubility (g/100 g solution): 1 if it is at least 2, 0 if it is smaller.

Consider the following illustrative entries.
| molecule | assigned_class |
| --- | --- |
| COC1=CC(=O)CC(C)C12Oc1c(Cl)c(OC)cc(OC)c1C2=O (stereo not given) + CC(=O)CC(C)C + CC(C)O | 0 |
| COC1=CC(=O)CC(C)C12Oc1c(Cl)c(OC)cc(OC)c1C2=O (stereo not given) + CC(C)=O + CC(C)O | 1 |
| O=C(O)C1CSCN1 (stereo not given) + O + CC#N | 0 |
| O=C1CCc2ccc(OCCCCN3CCN(c4cccc(Cl)c4Cl)CC3)cc2N1 + CCC(C)=O + CCCO | 1 |

Determine whether measured solubility (g/100 g solution) meets or exceeds 2 for O=C1CCc2ccc(OCCCCN3CCN(c4cccc(Cl)c4Cl)CC3)cc2N1 + CCC(C)=O + CC(C)=O
1
